assay: Quantitative High-Throughput drug screen in 47 multiple myeloma cell lines against the NCATS MIPE library collection: PCM6_Riken cell viability assay (AID 1919870); conditions: CellTiter-Glo ATP, 48 h; series mostly up to 45.8 µM; also: nearly all actives have a fitted effect of over 30% in size
Records with an inconclusive call do not appear. The source made the active and inactive calls. Calls follow the shape of the dose curve; as a rule, active = well fitted cell-killing curve with a large enough effect; inconclusive = small, poorly fitted or top-dose-only effect, or effect the other way; inactive = no such curve, though single readings can be large or run the other way.
The reply should be one of these categories: 1.0 for active, 0.0 for inactive

### Prompt Test call for this compound, please: C[C@@H](O)[C@H]1C(=O)N2C(C(=O)OCOC(=O)C(C)(C)C)=C(SC3CN(C4=NCCS4)C3)[C@H](C)[C@H]12
### Response 1.0

### Prompt What was the test verdict on CC1(C)OC2CC3C4CC(F)C5=CC(=O)C=CC5(C)C4C(O)CC3(C)[C@]2(C(=O)CO)O1 (some centres not stated) ?
### Response 0.0

### Prompt Query: recorded result category for CCC[C@H](N[C@@H](C)C(=O)N1[C@@H]2CCCC[C@H]2C[C@H]1C(=O)O)C(=O)OCC in this test
### Response 0.0

### Prompt Hi, sorry to bother you, what did the test record for OCCn1cc(-c2ccc3c(c2)CCC3=NO)c(-c2ccncc2)n1 ?
### Response 1.0

### Prompt Test call, this compound: NS(=O)(=O)c1ccc(Nc2nc(OCC3CCCCC3)c3[nH]cnc3n2)cc1
### Response 1.0

### Prompt Recorded test call requested for O=C(C=Cc1ccc(O)cc1)c1ccc(O)cc1O
### Response 1.0

### Prompt Kindly provide the recorded test outcome for the following compound: CC[C@H](CC#N)OC(=O)N[C@@H](C)c1cccc(NC(=O)Nc2ccc(-c3cnco3)c(OC)c2)c1
### Response 1.0
